The compounds listed here are annotated with their bioavailability.
Experiment: Oral bioavailability in rat (male Wistar)
Format: ADME, organism-based
Details: in vivo
TEST_READOUT: bioavailability (%)

[
  {
    "COMPOUND_STRING": "CNC(=O)NCCCC[C@H](NC(=O)OC(C(C)C)C(C)C)C(=O)C(=O)N[C@H](C)c1ccccc1",
    "UNITS_OF_MEASURE": "%",
    "RECORDED_VALUE": 10
  },
  {
    "COMPOUND_STRING": "CCCC[C@H](NC(=O)OC(C(C)C)C(C)C)C(=O)C(=O)NCc1ccno1",
    "UNITS_OF_MEASURE": "%",
    "RECORDED_VALUE": 32
  },
  {
    "COMPOUND_STRING": "CCCC[C@H](NC(=O)OC(C(C)C)C(C)C)C(=O)C(=O)N[C@H]1CCCNC1=O",
    "UNITS_OF_MEASURE": "%",
    "RECORDED_VALUE": 20
  },
  {
    "COMPOUND_STRING": "CCCC[C@H](NC(=O)OC(C(C)C)C(C)C)C(=O)C(=O)NCc1nnco1",
    "UNITS_OF_MEASURE": "%",
    "RECORDED_VALUE": 16
  },
  {
    "COMPOUND_STRING": "CCCC[C@H](NC(=O)OC(C(C)C)C(C)C)C(=O)C(=O)NCc1cncs1",
    "UNITS_OF_MEASURE": "%",
    "RECORDED_VALUE": 55
  },
  {
    "COMPOUND_STRING": "CCCC[C@H](NC(=O)OC(C(C)C)C(C)C)C(=O)C(=O)N[C@H](C)c1ccccc1",
    "UNITS_OF_MEASURE": "%",
    "RECORDED_VALUE": 3.1
  },
  {
    "COMPOUND_STRING": "CCCC[C@H](NC(=O)OC(C(C)C)C(C)C)C(=O)C(=O)NCc1ccccn1",
    "UNITS_OF_MEASURE": "%",
    "RECORDED_VALUE": 10
  },
  {
    "COMPOUND_STRING": "CCCC[C@H](NC(=O)OC(C(C)C)C(C)C)C(=O)C(=O)NCc1ccncc1",
    "UNITS_OF_MEASURE": "%",
    "RECORDED_VALUE": 5.2
  }
]

----------
The compounds listed here are annotated with their solubility thermodynamic.
Assay: Tested for equilibrium solubility in fasted state-simulated intestinal fluid at pH 6.8
Format: ADME
Conditions: fasted state-simulated intestinal fluid (FS-SIF)

[
  {
    "COMPOUND_STRING": "CCCC[C@H](NC(=O)OC(C(C)C)C(C)C)C(=O)C(=O)NCc1ccccn1",
    "solubility thermodynamic, µg/mL": 28
  },
  {
    "COMPOUND_STRING": "CCCC[C@H](NC(=O)OC(C(C)C)C(C)C)C(=O)C(=O)N[C@H](C)c1ccccc1",
    "solubility thermodynamic, µg/mL": 12
  },
  {
    "COMPOUND_STRING": "CCCC[C@H](NC(=O)OC(C(C)C)C(C)C)C(=O)C(=O)NCc1ccncc1",
    "solubility thermodynamic, µg/mL": 62
  },
  {
    "COMPOUND_STRING": "CCCC[C@H](NC(=O)OC(C(C)C)C(C)C)C(=O)C(=O)NCc1ccno1",
    "solubility thermodynamic, µg/mL": 63
  },
  {
    "COMPOUND_STRING": "CCCC[C@H](NC(=O)OC(C(C)C)C(C)C)C(=O)C(=O)N[C@H]1CCCNC1=O",
    "solubility thermodynamic, µg/mL": 350
  },
  {
    "COMPOUND_STRING": "CCCC[C@H](NC(=O)OC(C(C)C)C(C)C)C(=O)C(=O)NCc1nnco1",
    "solubility thermodynamic, µg/mL": 150
  },
  {
    "COMPOUND_STRING": "CCCC[C@H](NC(=O)OC(C(C)C)C(C)C)C(=O)C(=O)NCc1cncs1",
    "solubility thermodynamic, µg/mL": 51
  },
  {
    "COMPOUND_STRING": "CNC(=O)NCCCC[C@H](NC(=O)OC(C(C)C)C(C)C)C(=O)C(=O)N[C@H](C)c1ccccc1",
    "solubility thermodynamic, µg/mL": 32
  }
]

These entries and their values trace back to ChEMBL document CHEMBL1148252.
